meta.source: patent US5187165A

- assay-target: butyrylcholinesterase (Serum AChE) (Homo sapiens, UniProt P06276)
- Construct: A vial of lyophilized human serum; (Precilip); enzyme not purified
- Sequence (P06276 29-602): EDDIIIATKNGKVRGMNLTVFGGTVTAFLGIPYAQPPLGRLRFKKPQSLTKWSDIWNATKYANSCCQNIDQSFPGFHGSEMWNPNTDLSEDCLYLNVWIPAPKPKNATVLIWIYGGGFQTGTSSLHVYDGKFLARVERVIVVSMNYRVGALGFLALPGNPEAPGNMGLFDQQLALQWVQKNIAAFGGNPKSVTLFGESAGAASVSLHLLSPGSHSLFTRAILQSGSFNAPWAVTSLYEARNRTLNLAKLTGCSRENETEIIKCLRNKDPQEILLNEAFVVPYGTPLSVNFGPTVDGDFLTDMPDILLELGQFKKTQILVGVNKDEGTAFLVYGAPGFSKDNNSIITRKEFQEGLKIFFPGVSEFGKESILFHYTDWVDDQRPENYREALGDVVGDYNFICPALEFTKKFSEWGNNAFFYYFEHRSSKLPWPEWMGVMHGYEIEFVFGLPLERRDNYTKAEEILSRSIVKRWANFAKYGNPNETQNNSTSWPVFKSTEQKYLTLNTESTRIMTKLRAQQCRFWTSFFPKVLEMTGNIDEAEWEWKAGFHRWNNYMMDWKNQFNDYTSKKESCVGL
- measurement-protocol: In Vitro Inhibition of Butyrylcholinesterase Activity in Human Serum
pIC50: −log10 of the molar value.
Give pIC50 for every item shown.

Enquiry: pIC50 lookup needed for CN1CC[C@@]2(C)c3cc(OC(=O)NC45CC6CC(CC(C6)C4)C5)ccc3N(C)[C@@H]12 , thanks.
Return: < 4.00

Enquiry: pIC50 lookup needed for CN1CC[C@@]2(C)c3cc(OC(=O)Nc4cccc(Cl)c4)ccc3N(C)[C@@H]12 , thanks.
Return: < 3.00

Enquiry: pIC50 lookup needed for CN1CC[C@@]2(C)c3cc(OC(=O)NC4CCCCC4)ccc3N(C)[C@@H]12 , thanks.
Return: < 3.00

Enquiry: pIC50 lookup needed for CN1CC[C@@]2(C)c3cc(OC(=O)NC4CCCCCCCCCCC4)ccc3N(C)[C@@H]12 , thanks.
Return: < 3.00

Enquiry: pIC50 lookup needed for C[C@H](NC(=O)Oc1ccc2c(c1)[C@]1(C)CCN(C)[C@@H]1N2C)c1ccccc1 (relative stereo) , thanks.
Return: < 3.00

Enquiry: pIC50 lookup needed for CN1CC[C@@]2(C)c3cc(OC(=O)N4CC5CCC(CC5)C4)ccc3N(C)[C@@H]12 , thanks.
Return: < 3.00

Enquiry: pIC50 lookup needed for C[C@@H](NC(=O)Oc1ccc2c(c1)[C@]1(C)CCN(C)[C@@H]1N2C)c1ccccc1 (relative stereo) , thanks.
Return: 6.05
